Value source: patent US8940911B2

# Tested on: SK-N-SH cells
# assay_comment: Human neuroblastoma cancer cell cytotoxicity assay (CCK-8)
# Format: cell-based
# assay_setup: 200 or 300 μM, 1 h exposure, read after 24 h
measurement_type: cytotoxicity on human neuroblastoma cancer cells (in words)

Data request: # input compound: `CCCCOc1c(NC2CCCC2)c(=O)c1=O` ; wanted: its cytotoxicity on human neuroblastoma cancer cells (in words)
Data returned: toxic

Data request: # input compound: C=Cc1c(NC2CCOC2=O)c(=O)c1=O (stereo not shown) [vinyl-SHL 3] ; wanted: its cytotoxicity on human neuroblastoma cancer cells (in words)
Data returned: toxic

Data request: # input compound: C=Cc1c(NC2CCOC2=O)c(=O)c1=O [vinyl-L-SHL 4] ; wanted: its cytotoxicity on human neuroblastoma cancer cells (in words)
Data returned: toxic
